This collection of values is drawn from paper PMC6100557.

quantity.measured: melting point

Please review the following examples before continuing.
>>> df
                                   compound         result
0  O=C(Nn1c(-c2ccc(F)cc2)nc2ccc(F)cc2c1=O)C1CCCN1 (centres unmarked)  235 to 237 °C
1  N[C@@H](CCC(=O)O)C(=O)Nn1c(-c2ccc(F)cc2)nc2ccc(F)cc2c1=O  244 to 246 °C
2  C[C@H](N)C(=O)Nn1c(-c2ccc(F)cc2)nc2ccc(F)cc2c1=O  238 to 240 °C
3  N[C@@H](Cc1ccccc1)C(=O)Nn1c(-c2ccc(F)cc2)nc2ccc(F)cc2c1=O  245 to 247 °C

Retrieve melting point measured for CCC(C)[C@H](N)C(=O)Nn1c(-c2ccc(F)cc2)nc2ccc(F)cc2c1=O (some centres unmarked) and print it.
248 to 250 °C

Retrieve melting point measured for `CC(C)[C@H](N)C(=O)Nn1c(-c2ccc(F)cc2)nc2ccc(F)cc2c1=O` and print it.
242 to 244 °C

Retrieve melting point measured for `N[C@H](CS)C(=O)Nn1c(-c2ccc(F)cc2)nc2ccc(F)cc2c1=O` and print it.
220 to 222 °C

Retrieve melting point measured for `NCC(=O)Nn1c(-c2ccc(F)cc2)nc2ccc(F)cc2c1=O` and print it.
236 to 238 °C

---

# Test system: MCF-7
# experiment.description: In vitro cytotoxic screening (MTT assay), MCF-7
# Type: cell-based
# condition.parameters: Homo sapiens, MCF7, 48 h, read-out: IC50 (µM) MCF-7
quantity.measured: IC50 (µM)
// units = µM; emit number, no label

Retrieve IC50 measured for C#Cc1cccc(Nc2ncnc3cc(OCCOC)c(OCCOC)cc23)c1 [Erlotinib, erlotinib, reference compound] and print it.
1.14
